Assay: Tissue distribution analysis in mice
Assay type: in vivo
Conditions: mouse, colon, intravenous, 10 mg/kg
property-name: concentration at 1 h

1. CC1=C(Nc2ccc(N3CCN(C)CC3)cc2)C(=O)c2cncnc2C1=O :: ~300 ng/g
